Assayed system: KCNQ2/3 channels (Homo sapiens, UniProt O43525+O43526)
Method: Fluorescence assay using a voltage sensitive dye (fluorimetry)
Experimental parameters: CHO-K1 cells expressing KCNQ2/3 channels
Quantity: EC50 (nM)

1) CC(C)c1nc2cc(C(F)(F)F)ccc2cc1C(=O)NCc1ccc(F)cc1 152
2) CC(C)(C)c1nc2cc(C(F)(F)F)ccc2cc1C(=O)NCc1ccc(F)cc1 738
3) Cc1c(C(=O)NCc2ccc(F)cc2)c(C(C)C)nc2cc(C#N)ccc12 190
4) CCCc1nc2cc(C(F)(F)F)ccc2c(C)c1C(=O)NCc1cccs1 160
5) Cc1c(C(=O)NCc2cccc(F)c2)c(C2CC2)nc2cc(C#N)ccc12 108
6) Cc1c(C(=O)NCc2cccc(F)c2)c(CN(C)C)nc2cc(C(F)(F)F)ccc12 1850
7) Cc1c(C(=O)NCc2cccc(F)c2)c(C(C)C)nc2cc(C(F)(F)F)ccc12 53
8) CCc1nc2cc(C#N)ccc2c(C)c1C(=O)NCc1ccc(F)cc1 578
9) CCc1nc2cc(C(F)(F)F)ccc2c(C)c1C(=O)NCc1ccc(F)c(C)c1 317
